biological target: bFGF (UniProt P09038 143-288); test: SPR
Sequence (P09038 143-288): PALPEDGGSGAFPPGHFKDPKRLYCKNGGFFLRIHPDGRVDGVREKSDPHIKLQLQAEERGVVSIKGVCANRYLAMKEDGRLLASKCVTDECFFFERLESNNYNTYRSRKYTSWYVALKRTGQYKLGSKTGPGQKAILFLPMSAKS
MEASUREMENT_TYPE: binding result

BINDER: GGGGTTGGGCGGGGGTGACTTTTGGGGGATAAGGGG (ssDNA) [bFGF-PQS1]
MEASUREMENT_TYPE: binding result
RESULT: no binding

BINDER: GGCTGCGGCGTAGGCCCGGG (ssDNA) [bFGF-PQS9]
MEASUREMENT_TYPE: binding result
RESULT: no binding

BINDER: GGGCAAGGCGGGCAGCGTGG (ssDNA) [bFGF-PQS14]
MEASUREMENT_TYPE: binding result
RESULT: no binding

BINDER: GGGGGCGGCGCGCAGGAGGGAGG (ssDNA) [bFGF-PQS2]
MEASUREMENT_TYPE: binding result
RESULT: no binding
